Listing of recorded pKi by entry.
target: UniProtKB P49146; test: Displacement of [3H]propionyl-pNPY from human NPY Y2 receptor expressed in CHO cells co-expressing Gqi5-mtAEQ after 90 mins by liquid scintillation counting; assay type: cell-based
Sequence (P49146 whole entry): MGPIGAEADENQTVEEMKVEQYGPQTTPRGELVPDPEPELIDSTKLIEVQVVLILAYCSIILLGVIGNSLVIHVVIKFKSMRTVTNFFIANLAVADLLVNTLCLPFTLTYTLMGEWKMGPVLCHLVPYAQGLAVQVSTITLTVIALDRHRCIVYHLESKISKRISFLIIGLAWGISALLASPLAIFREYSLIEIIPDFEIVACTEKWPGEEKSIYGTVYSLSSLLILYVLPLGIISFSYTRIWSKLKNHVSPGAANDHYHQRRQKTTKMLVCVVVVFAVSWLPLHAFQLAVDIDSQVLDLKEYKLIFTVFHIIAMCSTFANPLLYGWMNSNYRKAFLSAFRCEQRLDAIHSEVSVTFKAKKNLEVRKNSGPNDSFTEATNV
Numbered stars: 1 amine (or outer) side, 2 acyl side, 3 side chain; on linkers, the order of the positions; unused ones are H or OH. Bridge positions count the residues as written; N and C are the ends. Square brackets hold non-standard residues; d marks the D form. Peptide text beside a SMILES is read from it. I, II: the chains in the order shown. X2 = NCCCCNC(=O)/N=C(\N)NCCC[C@H](N[*:1])C(=O)[*:2]; Suberoyl = O=C(CCCCCCC(=O)[*:2])[*:1]
Bear in mind: pKi is minus log10 of a mol/L concentration; give just that figure.

compound: CC(C)C[C@H](NC(=O)[C@H](CCCNC(=N)N)NC(=O)[C@H](Cc1ccc(O)cc1)NC(=O)CCCCCCC(=O)N[C@@H](Cc1ccc(O)cc1)C(=O)N[C@@H](CCCN/C(N)=N/C(=O)NCCCCN)C(=O)N[C@@H](CC(C)C)C(=O)N[C@@H](CCCNC(=N)N)C(=O)N[C@@H](Cc1ccc(O)cc1)C(N)=O)C(=O)N[C@@H](CCCNC(=N)N)C(=O)N[C@@H](Cc1ccc(O)cc1)C(N)=O (I: Y[X2]LRY-NH2 / II: YRLRY-NH2; linker I:N-II:N via Suberoyl)
pKi: 6.14

Now for another entry.
Data request: Answer with the recorded pKi of "CCC(=O)N[C@@H](CCCC[C@H](N)C(=O)N[C@@H](Cc1ccc(O)cc1)C(=O)N[C@@H](CCCNC(=N)N)C(=O)N[C@@H](CC(C)C)C(=O)N[C@@H](CCCNC(=N)N)C(=O)N[C@@H](Cc1ccc(O)cc1)C(N)=O)C(=O)N[C@@H](Cc1ccc(O)cc1)C(=O)N[C@@H](CCCNC(=N)N)C(=O)N[C@@H](CC(C)C)C(=O)N[C@@H](CCCNC(=N)N)C(=O)N[C@@H](Cc1ccc(O)cc1)C(N)=O" only.
Data returned: 6.38

Data provenance is ChEMBL document CHEMBL4477203.
